Value source: patent US20230263822A1

Tested on: human Factor 11 mRNA
Assay: Antisense inhibition of human Factor 11 in HepG2 cells, lipofectin, 75 nM (Example 1)
Assay type: cell-based
Conditions: 75 nM antisense oligonucleotide, ~24 h, relative to untreated control cells, gapmers targeted to SEQ ID NO: 1
Strand notation (5' to 3'): a small letter for the sugar, then the base; units joined by * are phosphorothioate-linked, units joined directly phosphodiester-linked; [ ] holds rarer units or linkages, { } end groups; capitals alone tell only the bases. e = 2'-O-(2-methoxyethyl) (MOE); [5mC] = 5-methylcytosine; d = 2'-deoxy (DNA)
Label yes (1) when % inhibition is at or above 40%; otherwise label no (0).

| substance | subject.of.test | class.label |
| --- | --- | --- |
| 412261 (antisense eT*e[5mC]*e[5mC]*e[5mC]*eA*dA*dG*dA*dT*dA*dT*dT*dT*dT*dA*eA*eA*eT*eA*eA) [compound 412261] | human Factor 11 mRNA | no (0) |
| 412217 (antisense eA*eA*eT*e[5mC]*e[5mC]*dA*d[5mC]*dT*d[5mC]*dT*d[5mC]*dA*dG*dA*dT*eG*eT*eT*eT*eT) [compound 412217] | human Factor 11 mRNA | yes (1) |
| 412214 (antisense eT*e[5mC]*e[5mC]*eT*eG*dG*dG*dA*dA*dA*dA*dG*dA*dA*dG*eG*eT*eA*eA*eA) [compound 412214] | human Factor 11 mRNA | yes (1) |
| 412192 (antisense e[5mC]*eA*eG*e[5mC]*eA*dT*dA*dT*dT*dT*dG*dT*dG*dA*dA*eA*eG*eT*e[5mC]*eG) [compound 412192] | human Factor 11 mRNA | yes (1) |
| 412189 (antisense eA*eA*eA*eT*eA*dT*dA*d[5mC]*d[5mC]*dT*dT*dG*dA*dG*dA*eG*eA*eA*eT*eT) [compound 412189] | human Factor 11 mRNA | no (0) |
